system: CDK4-cyclinD1; details: concentration: 1 μM, replicates: in singlicate; n = 1;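 also: KINOMEscan kinase panel screen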
Reported Endpoint: %Inh (%)
Give bare numbers, in %.

// worked examples, %Inh included
>>> df
                                   compound  assayed_target  unit_abbrev  number
0  O=C(Nc1cccc(-c2nn3ccccc3c2-c2ccnc(Nc3cccc(F)c3)n2)c1)c1c(F)ccc(F)c1Cl   CDK4-cyclinD1            %       0
1  COc1cc(Nc2nccc(-c3c(-c4cccc(NC(=O)c5c(F)cccc5F)c4)nn4ccccc34)n2)cc(OC)c1OC   CDK4-cyclinD1            %       0
2  NCCCC(NC(=O)c1cc(Br)c(-c2ccnc3[nH]ccc23)s1)c1ccccc1.O=C(O)C(F)(F)F.O=C(O)C(F)(F)F (stereo not shown)   CDK4-cyclinD1            %       0

# context switch: different compound, same %Inh
Asked: What measured %Inh is associated with c1ccc(Oc2ccc(Nc3ccnc4cc(-c5ccc(CNCCN6CCOCC6)o5)ccc34)cc2)nc1 on CDK4-cyclinD1?
Given back: 38
